- ASSAYED_SYSTEM: humanized development candidate monoclonal antibody IgG4 (hIgG4)
- ASSAY_TEXT: Gyrolab, mAb as capture, hIgG4 40 ng/ml, against the blank
OBSERVATION_TYPE: S/B
# respond with the number and nothing more

The examples below pair each entry with its known result.
rabbit anti-human IgG monoclonal antibody clone 11G5 (antibody, V domains shown) VH: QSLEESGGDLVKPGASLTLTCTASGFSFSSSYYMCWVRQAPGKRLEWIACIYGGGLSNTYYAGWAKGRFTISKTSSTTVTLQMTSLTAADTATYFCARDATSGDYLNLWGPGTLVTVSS VL: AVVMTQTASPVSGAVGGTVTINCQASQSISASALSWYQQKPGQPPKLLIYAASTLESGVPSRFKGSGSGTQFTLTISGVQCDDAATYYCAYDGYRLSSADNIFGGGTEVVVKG	8.2
rabbit anti-human IgG monoclonal antibody clone 9E6 (antibody, V domains shown) VH: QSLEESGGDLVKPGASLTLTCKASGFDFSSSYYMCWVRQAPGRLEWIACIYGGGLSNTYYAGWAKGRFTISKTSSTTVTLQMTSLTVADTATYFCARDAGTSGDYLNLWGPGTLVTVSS VL: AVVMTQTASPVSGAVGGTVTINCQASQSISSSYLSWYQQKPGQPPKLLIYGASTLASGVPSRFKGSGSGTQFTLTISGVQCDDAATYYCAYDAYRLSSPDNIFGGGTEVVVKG	9.8
rabbit anti-human IgG monoclonal antibody clone 2C5 (antibody, V domains shown) VH: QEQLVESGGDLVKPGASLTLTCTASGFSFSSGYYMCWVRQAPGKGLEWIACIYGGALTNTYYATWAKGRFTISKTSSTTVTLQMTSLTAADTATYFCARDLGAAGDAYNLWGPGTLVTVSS VL: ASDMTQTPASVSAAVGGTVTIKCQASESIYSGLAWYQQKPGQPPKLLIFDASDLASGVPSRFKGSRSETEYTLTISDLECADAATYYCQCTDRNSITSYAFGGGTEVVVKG	11.1

Shift focus to the following entry.
Q: Retrieve S/B measured for rabbit anti-human IgG monoclonal antibody clone 16F5 (antibody, V domains shown) VH: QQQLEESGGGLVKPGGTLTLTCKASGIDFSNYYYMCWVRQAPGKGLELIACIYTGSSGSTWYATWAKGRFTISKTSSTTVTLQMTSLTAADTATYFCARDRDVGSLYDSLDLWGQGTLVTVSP VL: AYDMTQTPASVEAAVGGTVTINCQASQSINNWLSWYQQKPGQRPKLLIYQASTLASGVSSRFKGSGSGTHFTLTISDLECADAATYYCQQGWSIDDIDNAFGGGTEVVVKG and print it.
Result: 16.4
